TGI listing for selected compounds.
Test system: BT-549 breast
Assay: NCI tumour cell line growth inhibition, 48 h

Below, 5 compounds whose answers are already recorded.
{"Compound": "Fc1ccc(-c2nn3c(CNc4ccccc4)nnc3s2)cc1", "TGI": "> 100 µM"}
{"Compound": "Cc1cc(=O)oc2cc(SC(=O)N(C)C)ccc12", "TGI": "> 100 µM"}
{"Compound": "O=C(Nc1ccc(Cl)cc1)NS(=O)(=O)c1coc2ccccc2c1=O", "TGI": "> 10 µM"}
{"Compound": "COc1cc(-c2nc(NC(C)=O)sc2-c2ccnc(NCCNS(=O)(=O)c3ccccc3)n2)ccc1Cl", "TGI": "> 100 µM"}
{"Compound": "O=c1[nH]c(=O)n(C2OC(CO)C(O)C2O)c2ncc(-c3ccc(-c4ccccc4)cc3)nc12 (stereo unspecified)", "TGI": "> 20 µM"}

Next compound, please.
Fill in TGI for record CC1(C)Oc2ccc3c(=O)c(-c4ccccc4)c(-c4ccccc4)oc3c2C1C(=O)O (stereo unspecified)
> 100 µM

* * *

System: NCI-H23 lung
Assay: NCI tumour cell line growth inhibition, 48 h; in the data active = GI50 below about 0.43 µM; inactive = the rest
Choose one outcome from this list and give only that: label 1 for active, label 0 for inactive

{"Compound": "COc1ccc(-c2nsc3c2NC(=O)CC3c2ccc(F)cc2)cc1 (centres undefined)", "Class": "label 0"}
{"Compound": "CN[C@@H](C)C(=O)N[C@H]1CN(C(=O)CC(C)C)CC[C@H]2CC[C@@H](C(=O)NC(c3ccccc3)c3ccccc3)N2C1=O", "Class": "label 0"}
{"Compound": "CCc1c2c(nc3cc4c(c(N)c13)OCO4)-c1cc3c(c(=O)n1C2)COC(=O)[C@]3(O)CC", "Class": "label 1"}
{"Compound": "CCOC(CCCNCCCn1c2c(c3cc(OC)c(OC)cc3c1=O)C(=O)c1cc3c(cc1-2)OCO3)OCC", "Class": "label 0"}
{"Compound": "O=C1/C(=C\\c2ccc(F)cc2)CN(C(=O)c2ccc([N+](=O)[O-])cc2)C/C1=C\\c1ccc(F)cc1", "Class": "label 0"}

Assay result, entry C[C@@H](N)C1CCC(C(=O)Nc2ccncc2)CC1 (some centres undefined) — outcome?
label 0

Field: outcome | Entry: O=C1/C=C/[C@@H](O)[C@@H]2C[C@@H](O)C[C@H]2/C=C/CCC[C@H](CCc2ccc(C(F)(F)F)cc2)O1
label 1

# outcome recorded in this test, key = CCN(CC)CC.CCOc1ccc(NC(=O)N=C=[N-])cc1.[CH-]1CCCCC1.[CH-]1CCCCC1.[CH-]1CCCCC1.[Cl-].[Sn+4]
label 1

* * *

Tested on: HL-60(TB) leukemia
Experiment: NCI tumour cell line growth inhibition, 48 h
Attribute Measured: TGI

{"Compound": "O=C(Nc1cccc(NC(=O)C(=O)C2CCC3=C(Sc4ccccc4N3)C2=O)n1)C(=O)C1CCC2=C(Sc3ccccc3N2)C1=O (stereo not drawn)", "TGI": "> 100 µM"}

Identify measured TGI corresponding to Cc1cc(S(=O)(=O)NC(=C(C#N)C#N)[n+]2ccc(N(C)C)cc2)c([S-])cc1Cl
> 100 µM

Report TGI for CC(=O)OCC1OC(n2c(C#N)cc(=O)[nH]c2=O)CC1OC(C)=O (stereo not drawn)
> 100 µM

* * *

System: NCI/ADR-RES ovarian
Assay: NCI tumour cell line growth inhibition, 48 h
Attribute Measured: TGI

The examples below pair each entry with its known result.
{"Compound": "COc1cc(-c2nc(NC(C)=O)sc2-c2ccnc(NCCNS(=O)(=O)c3ccccc3)n2)ccc1Cl", "TGI": "> 100 µM"}
{"Compound": "O=c1c(-c2c(-c3ccccc3)oc3ccc(Cl)cc3c2=O)c(-c2ccccc2)oc2ccc(Cl)cc12", "TGI": "> 100 µM"}

State its TGI for this compound: Nc1ccc(Oc2ccc(C3(c4ccc(Oc5ccc(N)cc5)cc4)C4CC5C6CC7CC5C3C(C7)C6C4)cc2)cc1
> 100 µM

* * *

Test system: HOP-62 NSCLC
Assay: NCI tumour cell line growth inhibition, 48 h
Attribute Measured: TGI

A selection of reference data follows.
{"Molecule": "Cc1cc2nc3c(C#N)c(-c4ccccc4)/c(=C\\Nc4ccc(Cl)cc4)c(=O)n3c2cc1C", "TGI": "> 100 µM"}
{"Molecule": "CCc1n[nH]c(=O)n1N1C(=O)CCC1=O", "TGI": "> 100 µM"}

API: the following record is the query input.
// Input: O=C(CSc1nnc(Cc2ccccc2)o1)Nc1cccc(Cl)c1 . Output its TGI only.
> 100 µM

* * *

Reported TGI is given for each of the following compounds.
Test system: NCI-H460 lung
Assay: NCI tumour cell line growth inhibition, 48 h

{"Compound": "COc1cccc(Cn2c(-c3nonc3N)nc3ccccc32)c1", "TGI": "> 34.6 µM"}
{"Compound": "C[N+](C)(C)CC(=O)N/N=C(\\CCC(=O)NCCc1ccccc1)CC(=O)c1ccccc1", "TGI": "> 100 µM"}

Note down TGI recorded for CCN1C(=S)n2cccc2C1CC(=O)c1ccc(Cl)cc1 (stereo not drawn)
> 100 µM

* * *

Tested on: T-47D breast
Experiment: NCI tumour cell line growth inhibition, 48 h
Attribute Measured: TGI

{"Molecule": "COc1ccc2oc(=Nc3ccccc3)c(C(N)=O)cc2c1", "Attribute Measured": "TGI", "Result": "> 100 µM"}

Now take the following molecule into account.
Fill in reported TGI for this entry: Cc1ncc(C(=O)Nc2ccc(CN3CCN(C)CC3)c(C(F)(F)F)c2)cc1C#Cc1cnc(N)c2cnccc12
> 32.8 µM

* * *

System: OVCAR-5 ovarian
Experiment: NCI tumour cell line growth inhibition, 48 h
Parameter TGI: see the listing below.

{"Compound": "Cn1c2c(c3ccccc31)CCN1OCC=C[C@@H](C(=O)O)[C@@H]21", "Result": "> 100 µM"}
{"Compound": "NC(=O)NC(=O)CCC(NS(=O)(=O)c1ccccc1)C(=O)NC(N)=O (stereo unspecified)", "Result": "> 100 µM"}
{"Compound": "COc1cc(Br)c(CC2(C#N)c3ccccc3C3C(N2C(=O)c2ccccc2)C3(Cl)Cl)cc1OC (stereo unspecified)", "Result": "> 65.5 µM"}
{"Compound": "COc1cc(OC)c2ssc3c(OC)cc(OC)c4ssc1c2-c43", "Result": "> 100 µM"}
{"Compound": "CCCCCCCCCCCCCCCCOCC(CN(C)CCN(C)C)OCCCCCCCCCCCCCCCC (stereo unspecified)", "Result": "> 100 µM"}

Next, consider the following compound.
Answer with the recorded TGI of O=C1OC(c2ccccc2)=N/C1=C\c1ccc2ccccc2c1 only.
> 100 µM

* * *

Tested on: MALME-3M melanoma
Experiment: NCI tumour cell line growth inhibition, 48 h
The molecules listed here are annotated with their TGI.
Form entry: value (µM) — number only.

{"Molecule": "O=C(NCCO)c1cc2c(cn1)[nH]c1ccccc12", "Test System": "MALME-3M melanoma", "Quantitative Readout": 43.9}

Now for the molecule whose TGI we want.
Provide TGI, tested on MALME-3M melanoma, for Cc1cc(N)ccc1N=Nc1ccc(S(=O)(=O)CCOS(=O)(=O)O)cc1 .
20.5

* * *

Tested on: ACHN renal
Experiment: NCI tumour cell line growth inhibition, 48 h
Attribute Measured: TGI (µM)
I only need the number, in µM, no unit after it.

{"Compound": "CC1=C(C#N)C23C(=O)c4ccccc4C(O)=C2C(=O)C=CC3(O)N1 (centres undefined)", "Test System": "ACHN renal", "Quantitative Readout": 19.9}
{"Compound": "O=C1Oc2ccccc2C(=O)/C1=C/N1C(=O)/C(=C/c2ccc3c(c2)OCO3)SC1=S", "Test System": "ACHN renal", "Quantitative Readout": 28.1}
{"Compound": "Cc1ncc(C(=O)Nc2ccc(CN3CCN(C)CC3)c(C(F)(F)F)c2)cc1C#Cc1cnc(N)c2cnccc12", "Test System": "ACHN renal", "Quantitative Readout": 1.03}

Now, please, on to the next compound.
Answer with the recorded TGI for the compound listed here: CC(C)(Br)C(Br)CCC(=CCBr)CBr (mixture of isomers)
21.6

* * *

Consider the following compounds and their measured TGI readings.
Tested on: NCI-H23 lung
Assay: NCI tumour cell line growth inhibition, 48 h
Respond numerically; units are µM and should not be typed.

Worked cases, answers included:
{"Compound": "CCOC(=O)Cc1nc2ccccc2s1", "Quantity Unit": "µM", "Quantitative Readout": 29.3}
{"Compound": "C=C1C(=O)OC2/C=C(\\C)C3OC3/C=C(/C(=O)OC)C(O)C(OC(=O)C3(C)OC3C)C12 (stereo unspecified)", "Quantity Unit": "µM", "Quantitative Readout": 3.5}
{"Compound": "CC(C)(Br)C(Br)CCC(=CCBr)CBr (mixture of isomers)", "Quantity Unit": "µM", "Quantitative Readout": 12.1}
{"Compound": "Nc1ccccc1SC(CC(=O)c1ccccc1)c1ccc([N+](=O)[O-])cc1 (stereo unspecified)", "Quantity Unit": "µM", "Quantitative Readout": 27.2}

// fetch TGI given entry C/C1=C/C(=O)O[C@@H]2C[C@@H](CC[C@H](C)/C=C\C=C\CC1)O[C@@](O)([C@@H]1CSC(=O)N1CO)C2
30.4

Quick one: give measured TGI for CCSC(SCC)c1cc2c(cc1Br)OCO2
88.9
